Provide the recorded IC50 for the entries that follow.
Test system: MCF-7
EXPERIMENT: Anti-proliferative activity, SRB colorimetric assay
Type: cell-based
MEASUREMENT SETUP: Homo sapiens, MCF7; MCF-7 cancer cell line, SRB assay; read-out: Cell lines (IC50 μM) MCF-7

**Query** Supply IC50 value. Item: CCOC(=O)c1c(-c2cccs2)cc(-c2ccc(O)cc2)[nH]c1=O [4a]
**Result** 41.2 µM

**Query** Report IC50, nothing else, for this compound: O=C(/C=C/c1cccs1)c1ccc(O)cc1 [1a]
**Result** 82.5 µM

**Query** Report measured IC50; entry is N#Cc1c(-c2cccs2)cc(-c2ccc(O)cc2)nc1N [2a]
**Result** 9.59 µM

**Query** Please report IC50 for the following compound: NC(=S)n1nc(-c2ccc(O)cc2)cc1-c1cccs1 [10a]
**Result** 23.7 µM

**Query** Retrieve IC50 measured for O=C(/C=C/c1cccs1)c1ccc(Cl)c(Cl)c1 [1b] and print it.
**Result** > 100 µM

**Query** Using the record for NC(=S)n1nc(-c2ccc(Cl)c(Cl)c2)cc1-c1cccs1 [10b] , state its measured IC50.
**Result** 23.2 µM

**Query** Please give the documented IC50 of O=C(CCl)SC(=S)N1N=C(c2ccc(O)cc2)CC1c1cccs1 (centres unmarked) [20a]
**Result** 56.2 µM

**Query** Fill in reported IC50 for this entry: N#Cc1c(-c2cccs2)cc(-c2ccc(Cl)c(Cl)c2)nc1N [2b]
**Result** 55.5 µM

**Query** Supply reported IC50 belonging to this compound: O=C(SC(=S)N1N=C(c2ccc(O)cc2)CC1c1cccs1)c1ccccc1 (centres unmarked) [18a]
**Result** 6.92 µM

**Query** Determine from records and report IC50 for CCOC(=O)CN1N=C(c2ccc(O)cc2)CC1c1cccs1 (centres unmarked) [15a]
**Result** 9.48 µM

**Query** Please give measured IC50 of the following entry: CC(=O)N1N=C(c2ccc(Cl)c(Cl)c2)CC1c1cccs1 (centres unmarked) [8b]
**Result** 72.6 µM

**Query** Supply recorded IC50 for Oc1ccc(C2=NNC(c3cccs3)C2)cc1 (centres unmarked) [7a] here.
**Result** 3.54 µM

**Query** Quote IC50 reported for NS(=O)(=O)c1ccc(NC(=O)CN2N=C(c3ccc(O)cc3)CC2c2cccs2)cc1 (centres unmarked) [16a] please.
**Result** 29.1 µM

**Query** Retrieve IC50 measured for CC(=O)c1c(-c2cccs2)cc(-c2ccc(O)cc2)[nH]c1=O [3a] and print it.
**Result** 48.4 µM

**Query** Kindly indicate its recorded IC50. Item: Nc1nc(-c2ccc(O)cc2)cc(-c2cccs2)n1 [11a]
**Result** 61.1 µM

**Query** Item N#Cc1c(N)c2c(-c3cccs3)cc(-c3ccc(O)cc3)nc2[nH]c1=O [6a] : provide IC50
**Result** 19.1 µM

**Query** Give me measured IC50, please, for this compound: Oc1ccc(-c2cc(-c3cccs3)nc(/N=C/c3ccccc3O)n2)cc1 [13a]
**Result** 42.8 µM

**Query** Read off the recorded IC50 for Clc1ccc(C2=NN(c3ccccc3)C(c3cccs3)C2)cc1Cl (centres unmarked) [9b]
**Result** 67.3 µM

**Query** Could you please provide reported IC50 for O=C(CNC(=S)n1nc(-c2ccc(Cl)c(Cl)c2)cc1-c1cccs1)c1ccccc1 [12b] ? Thanks!
**Result** 36 µM

**Query** For the compound N#Cc1c(-c2cccs2)cc(-c2ccc(O)cc2)nc1O [5a] , give its measured IC50 value.
**Result** 38.4 µM

**Query** Supply reported IC50 belonging to this compound: CCOC(=O)CSC(=S)N1N=C(c2ccc(O)cc2)CC1c1cccs1 (centres unmarked) [17a]
**Result** 36.9 µM

**Query** Answer with reported IC50 of Oc1ccc(-c2cc(-c3cccs3)n(-c3nc4nc5ccccc5nc4s3)n2)cc1 [12a]
**Result** 65 µM

**Query** Look up and report measured IC50 for this entry: O=C(O)CSC(=S)N1N=C(c2ccc(O)cc2)CC1c1cccs1 (centres unmarked) [19a]
**Result** 14.7 µM

Cited source: paper PMC10112504
